Entries and their fold change
assay: activators of NF-kB expression in neurons, primary screen, cell-based, HTS (AID 1239); conditions: human neuronal cells, NF-kB reporter expression; at 12.5 µM; hits give high values
About 3,100 (1.6%) of roughly 190,000 compounds were called active. The sample as a whole holds a higher share of actives than the screen did.
MEASUREMENT TYPE: fold change

- Cn1c(N)c(C(=O)COC(=O)/C=C/c2ccc(OC(F)F)cc2)c(=O)n(C)c1=O: 1.25
- CCc1ccc(NC2Nc3cc(C)nn3S2)cc1 (stereo not given): 4.6
- CC1CC(C)CN(S(=O)(=O)c2ccc(C(=O)NN3CCOCC3)cc2)C1 (stereo not given): 1.27
- CCN1CCN(Cc2nc3c(c(=O)n(C)c(=O)n3C)n2CC(=O)c2ccccc2)CC1: 2.25
- CC(C)N1CCC(=NNc2ccc([N+](=O)[O-])cc2S(=O)(=O)N2CCOCC2)CC1: 1.19

----------
test: activators of NF-kB expression in neurons, primary screen, cell-based, HTS (AID 1239); conditions: human neuronal cells, NF-kB reporter expression; at 12.5 µM; hits give high values
Hit rate of the full screen: of about 190,000 compounds, about 3,100 (1.6%) were called active. This is one part of a sample in which actives are shown more often than they occur.
MEASUREMENT TYPE: fold change

- O=C(Nc1ccccc1)Nc1nc2ccccc2s1: 8.18
- O=C(Nc1cccc([N+](=O)[O-])c1)c1ccc2c(c1)OCO2: 1.37
- Cc1nc2cc(NC(=O)NCc3ccccc3)ccc2o1: 1.54
- O=C(Nc1cccnc1)c1ccc2c(c1)OCO2: 1.47
- Cc1c(Br)ccc(NC(=O)COc2ccccc2C(N)=O)c1C: 1.08
- Cc1cc(C)c2nc(NC(=O)c3ccc4c(c3)OCO4)sc2c1: 1.11
- Cc1ccn(-c2cccc(-n3ccc(C)n3)n2)n1: 3.56
- COc1ccc(-c2ccc(CCC(=O)O)n2-c2ccc(O)cc2)cc1: 0.84
- CCOC(=O)N1CCN(C(=O)CSc2nc(C)nc3c2c(=O)n(C)c(=O)n3C)CC1: 0.96
- COCCN(C(=O)CCC(=O)Nc1nccs1)C(C(=O)NC(C)(C)C)c1ccc(Cl)cc1 (stereo unspecified): 1.27
- CC(=O)NC1C(Oc2ccc(C=O)cc2)OC(COC(C)=O)C(OC(C)=O)C1OC(C)=O (stereo unspecified): 1.36
- Cn1c(=O)n(C)c2cc(C(=O)Nc3ccc4c(c3)OCO4)ccc21: 1.54
- Cn1nnnc1SCC(=O)Nc1nc2ccccc2s1: 1.74
- N#C/C(=C\c1ccc(-c2cccc([N+](=O)[O-])c2)o1)C(=O)NCCN1CCOCC1: 1.14
- O=C(Nc1nc2ccccc2s1)c1ccc2c(c1)OCO2: 7.05
- O=C(NCc1ccccc1)C1=C[C@@H](c2ccc(C(F)(F)F)cc2)C[C@@H](OCc2ccc(CO)cc2)O1: 0.94

----------
experiment: activators of NF-kB expression in neurons, primary screen, cell-based, HTS (AID 1239); conditions: human neuronal cells, NF-kB reporter expression; at 12.5 µM
Screen size: about 190,000 compounds; about 3,100 (1.6%) were called active. No stated cut-off is given here; in the data, active means fold change above about 3.3; inconclusive means no clear call, values can overlap the other calls; inactive means below that. This excerpt belongs to a sample that is enriched for actives.
Possible outcomes: T = active, F = inactive

* Cc1nn2cc(-c3ccc(Cl)cc3)cnc2c1Br | T
* S=C(Nc1cccc(Cl)c1)Nc1ccc2cn[nH]c2c1 | F
* CCn1c(CSCc2c(Cl)cccc2Cl)n[nH]c1=S | F
* CCOC(=O)CSc1nc(C)cc2c1C(=O)OC2 | F
* CCC(=O)Oc1cccc(C(=O)Nc2ccc(-c3nnc(-c4ccco4)o3)cc2)c1 | F
* CCOc1ccc(-c2nnc(-c3ccco3)o2)cc1 | F
* O=C(OCC(=O)c1cccs1)c1ccc([N+](=O)[O-])o1 | F
* O=C(Nc1ccc(Cl)cn1)c1ccc2c(c1)OCCO2 | T
* CCOc1cc(NC(=S)NCc2ccco2)c(OCC)cc1NC(=O)c1ccco1 | F
* OCCNc1nc2ccccc2[nH]1 | F
* C#CCSc1nnc(-c2sc3ccccc3c2Cl)o1 | T
* O=C(Nc1cccc(S(=O)(=O)Nc2ccc(Cl)cc2)c1)c1ccc2c(c1)OCCO2 | F
* CCSc1nnc(NC(=O)Cc2ccccc2OC)s1 | F
* CC(=O)c1sc(NC(=O)c2cccc3ccccc23)nc1C | F
* CCOC(=O)CSc1ccccn1 | F
* CCSc1nnc(NC(=O)c2ccc(C)cc2)s1 | T
* Cn1cnnc1Sc1ccc(CN2CCN(C3CCCC3)C(CCO)C2)o1 (configuration not stated) | F
* COC(=O)Cc1ccc(Oc2ncc(C(F)(F)F)cc2Cl)cc1 | F
* CCCCOc1ccc(-c2nnc(-c3ccco3)o2)cc1 | T
* COc1c(Cl)cc(C(=O)Nc2ccc(Cl)cn2)cc1Cl | F
* CCOC(=O)CSC1=N/C(=C/c2ccc(-n3cncn3)cc2)C(=O)N1C(C)=O | T
* C/C(=N\Nc1nc(Nc2ccccc2)nc(N2CCOCC2)n1)c1cccs1 | F
